test: Metabolic stability of the compound in human liver microsomes assessed as parent compound remaining measured after 30 mins; format: ADME, Microsome; conditions: read-out: Stability
endpoint name: remaining at 0.5 h (%)

Known remaining at 0.5 h results, listed for orientation:
>>> experimental_result("COc1cccc(S(=O)(=O)/C=C/c2ncccc2C(F)(F)F)n1")
38.8
>>> experimental_result("COc1ncccc1S(=O)(=O)/C=C/c1ncccc1Cl")
77.6
>>> experimental_result("COc1cccnc1S(=O)(=O)/C=C/c1ccccc1Cl")
83.1
>>> experimental_result("COc1ccncc1S(=O)(=O)/C=C/c1ncccc1Cl")
91.4
>>> experimental_result("COc1ncccc1S(=O)(=O)/C=C/c1ccccc1Cl")
75.2

[P] COc1ccc(S(=O)(=O)/C=C/c2ncccc2Cl)nc1
[Q] COc1cccnc1S(=O)(=O)/C=C/c1ncccc1Cl
[R] COc1cccc(S(=O)(=O)/C=C/c2ccccc2C(F)(F)F)n1
Output the entries ranked by remaining at 0.5 h from maximum down to minimum. Show the ranking through the labels, in the order asked for. Q, P, R

Reference source for all entries: ChEMBL document CHEMBL5370549
